Test system: MS2 coat protein
Experiment summary: apparent KD of MS2 coat protein; higher = weaker reporter binding
Condition summary: Eterna round: R107; input ligand: none
Binary call on apparent KD of MS2 coat protein: Met from 20 nM upward, Not met beneath that.

# count of solved cases: 3
State whether the measured apparent KD of MS2 coat protein reaches 20 nM, counting equality as reaching it, for GAUAUGUUUCGAAGGAGCGGCCCUUGAUCCUCAUGAGACAUGAGGAUCACCCAUGUCUCGGGCCAGGUAGGUCGCGAAAUAUAUC [Astros-omei-mod4]
Not met

Reported apparent KD of MS2 coat protein at or above 20 nM? ACCAGGGUCUGAAGGAGCGCGAUUACAUGAGGAUCACCCAUGUGAAAUGGUAGAUGAUACUCGCAGGUAGGUCGCAGUACUUGGA [Same State Arginine B GF 14]
Met

Reported apparent KD of MS2 coat protein at or above 20 nM? UCGCGAGAGGGAAGGAGCGUCAGCUGAGUCACAUGAGGAUCACCCAUGUCGCACAUAGUGUGACAGGUAGGUCGCCCUCCGCCCU [Leinticees]
Met

Others:
Exam item: decide whether the reported apparent KD of MS2 coat protein for UAUGCACAUGAGGAUCACCCAUGUAUGGAAGGAGCGGUGAAUAAACCAGGUAGGUCGCCAUGGUGAGGGUCAUCUAUGUAAUCGU [Exclusion - Arginine A (Freestyle 5)] is at least 20 nM.
Met

Is apparent KD of MS2 coat protein at least 20 nM? Consider GGACUAACCAGAAGGAGCGACACGCAGAAACUGCAAUUUCCUCCGCACGAGGAUCACCCGUGUCAGGUAGGUCGCUGGUUAGUCG
Met

Identify whether the reported apparent KD of MS2 coat protein of the following sequence is 20 nM or greater: AACAUGAGGAUCACCCAUGUAUGUUCCGAAGGAGCGCCACAUGAGGCAGGUAGGUCGCGGGUACAUGAGGAUCACCCAUGUGUCA [Exclusion Arginine A 3]
Met
